assay.system: Cst6 (UniProt P40535)
Sequence (P40535 whole entry): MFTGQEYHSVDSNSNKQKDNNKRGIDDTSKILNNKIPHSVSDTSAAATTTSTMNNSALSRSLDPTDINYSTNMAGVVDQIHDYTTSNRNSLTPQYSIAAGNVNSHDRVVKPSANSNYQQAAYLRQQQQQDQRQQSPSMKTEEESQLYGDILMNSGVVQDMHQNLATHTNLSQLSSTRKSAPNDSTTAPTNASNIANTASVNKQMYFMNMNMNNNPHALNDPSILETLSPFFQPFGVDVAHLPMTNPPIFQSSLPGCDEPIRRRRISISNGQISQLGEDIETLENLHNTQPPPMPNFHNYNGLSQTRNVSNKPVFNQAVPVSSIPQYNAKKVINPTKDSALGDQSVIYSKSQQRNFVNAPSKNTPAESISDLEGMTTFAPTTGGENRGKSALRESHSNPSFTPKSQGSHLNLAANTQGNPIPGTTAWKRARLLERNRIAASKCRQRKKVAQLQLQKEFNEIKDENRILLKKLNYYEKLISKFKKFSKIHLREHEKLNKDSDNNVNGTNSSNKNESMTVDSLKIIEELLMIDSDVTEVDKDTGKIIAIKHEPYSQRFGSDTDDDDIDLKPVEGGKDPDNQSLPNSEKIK
measurement.description: PBM E-score (8-mer binding enrichment) (E-score (-0.5 to 0.5)); higher = stronger / more preferred TF binding
recorded.conditions: protein concentration: 200 nM; construct: GST-DNA-binding domain
The full ranking holds about 33,000 sequences; the median of “E-score (-0.5 to 0.5)” is about -0.016, and the highest 2% start at about 0.31. The entries come from a sample that favours the highest values as a whole.
test.readout: PBM E-score
Lab note: jot the number down without any unit.

Sample answers from the record:
INSERT INTO results (chain_sequence, observed_value) VALUES
  ('ATAATTTA', 0.304),
  ('TCTCGTAA', 0.305);

Then there is this sequence:
Q: # get_value(readout='PBM E-score', item= CCTCGTCA )
A: 0.308

---

assay.system: Cst6 (UniProt P40535)
measurement.description: PBM E-score (8-mer binding enrichment) (E-score (-0.5 to 0.5)); higher = stronger / more preferred TF binding
recorded.conditions: protein concentration: 200 nM; construct: GST-DNA-binding domain
Whole data set: some 33,000 sequences, median “E-score (-0.5 to 0.5)” near -0.016, cut for the highest 2% near 0.31. Many of the other results were omitted from the sample, so the highest values are more common in it than they were.
Please assign a class to every record based on measured PBM E-score, with ranges bottom = under -0.02, middle = from -0.02 up to 0.1, top = 0.1 and over

INSERT INTO assay_data (chain_sequence, label_class) VALUES
  ('GTGTCACA', 'top'),
  ('CGGTCCGC', 'bottom'),
  ('ATGCCTCG', 'top'),
  ('GCGGCACA', 'top');

Q: Exercise: read the entry AAGTACCC and state which class it falls under.
A: bottom

Q: Exercise: read the entry CCTAAGCA and state which class it falls under.
A: bottom

Q: Exercise: read the entry GGCCCTGA and state which class it falls under.
A: bottom

Q: Exercise: read the entry ATGTCTTC and state which class it falls under.
A: bottom

Q: Exercise: read the entry CCACACTA and state which class it falls under.
A: top

Q: Exercise: read the entry CACCATTC and state which class it falls under.
A: middle

Q: Exercise: read the entry ATGTCAGA and state which class it falls under.
A: top

Q: Exercise: read the entry ACCTTTGC and state which class it falls under.
A: bottom

Q: Exercise: read the entry ACGTCAGC and state which class it falls under.
A: top

---

assay.system: Cst6 (UniProt P40535)
measurement.description: PBM E-score (8-mer binding enrichment) (E-score (-0.5 to 0.5)); higher = stronger / more preferred TF binding
recorded.conditions: protein concentration: 200 nM; construct: GST-DNA-binding domain
The full ranking holds about 33,000 sequences; the median of “E-score (-0.5 to 0.5)” is about -0.016, and the highest 2% start at about 0.31. Shown is part of a subset that was picked to be rich in the highest values.
test.readout: PBM E-score
Lab note: jot the number down without any unit.

INSERT INTO measurements (chain_sequence, observed_value) VALUES
  ('AATTGCGT', 0.315),
  ('TGTCAACA', 0.184),
  ('CATCATCA', 0.409),
  ('AATTGCGC', 0.309),
  ('AATTGCGG', -0.0187),
  ('AAACCATG', -0.0483),
  ('ACTCCTTC', -0.234),
  ('GGCAGGAA', -0.21);

Then there is this sequence:
Q: Field: PBM E-score (Cst6 (UniProt P40535)). Entry: GTCGCCCA
A: -0.192

---

assay.system: Cst6 (UniProt P40535)
measurement.description: PBM E-score (8-mer binding enrichment) (E-score (-0.5 to 0.5)); higher = stronger / more preferred TF binding
recorded.conditions: protein concentration: 200 nM; construct: GST-DNA-binding domain
Over roughly 33,000 sequences, “E-score (-0.5 to 0.5)” has its median near -0.016; the highest 2% begin near 0.31. Only a selection was taken, and the highest values are over-represented in it overall.
Please assign a class to every record based on measured PBM E-score, with ranges I (below 0.07), II (0.07 to below 0.2), III (0.2 or more)

INSERT INTO measurements (chain_sequence, label_class) VALUES
  ('CTAATTAC', 'III'),
  ('AATAATTA', 'III'),
  ('ATATTACG', 'III'),
  ('CATTACGC', 'III'),
  ('AATAATTG', 'II');

Q: Exercise: read the entry ACTAAGAG and state which class it falls under.
A: I

Q: Exercise: read the entry ATTCTTAC and state which class it falls under.
A: III

Q: Exercise: read the entry GCTAATTA and state which class it falls under.
A: II

Q: Exercise: read the entry TAACCACA and state which class it falls under.
A: I

Q: Exercise: read the entry TCTTGCCA and state which class it falls under.
A: I

---

This section presents sequences with their documented PBM E-score values.
assay.system: Cst6 (UniProt P40535)
measurement.description: PBM E-score (8-mer binding enrichment) (E-score (-0.5 to 0.5)); higher = stronger / more preferred TF binding
recorded.conditions: protein concentration: 200 nM; construct: GST-DNA-binding domain
Whole data set: some 33,000 sequences, median “E-score (-0.5 to 0.5)” near -0.016, cut for the highest 2% near 0.31. This is one part of a sample in which the highest values are shown more often than they occur.
Lab note: jot the number down without any unit.

Sample answers from the record:
INSERT INTO results (chain_sequence, assay_system, test_readout, observed_value) VALUES
  ('ACAAGATA', 'Cst6 (UniProt P40535)', 'PBM E-score', 0.0758),
  ('GACGGGTA', 'Cst6 (UniProt P40535)', 'PBM E-score', -0.0938),
  ('TCTCGGCA', 'Cst6 (UniProt P40535)', 'PBM E-score', -0.0951),
  ('CCGATAGA', 'Cst6 (UniProt P40535)', 'PBM E-score', -0.124),
  ('AGACATGG', 'Cst6 (UniProt P40535)', 'PBM E-score', -0.0372);

Q: Field: PBM E-score (Cst6 (UniProt P40535)). Entry: ACGGTGAG
A: -0.0622

---

assay.system: Cst6 (UniProt P40535)
measurement.description: PBM E-score (8-mer binding enrichment) (E-score (-0.5 to 0.5)); higher = stronger / more preferred TF binding
recorded.conditions: protein concentration: 200 nM; construct: GST-DNA-binding domain
Over roughly 33,000 sequences, “E-score (-0.5 to 0.5)” has its median near -0.016; the highest 2% begin near 0.31. The entries come from a sample that favours the highest values as a whole.
test.readout: PBM E-score
Lab note: jot the number down without any unit.

Sample answers from the record:
INSERT INTO results (chain_sequence, observed_value) VALUES
  ('CGCGTCAG', 0.0126),
  ('CTTCGTCC', -0.155),
  ('AACGTCCT', -0.0138),
  ('AGCGTCCT', -0.276);

Q: # get_value(readout='PBM E-score', item= AGCGTCAT )
A: 0.423

Q: # get_value(readout='PBM E-score', item= ATTCGTCG )
A: 0.0126

Q: # get_value(readout='PBM E-score', item= CACGTCAA )
A: 0.366

Q: # get_value(readout='PBM E-score', item= ATTCGTCA )
A: 0.423

---

assay.system: Cst6 (UniProt P40535)
measurement.description: PBM E-score (8-mer binding enrichment) (E-score (-0.5 to 0.5)); higher = stronger / more preferred TF binding
recorded.conditions: protein concentration: 200 nM; construct: GST-DNA-binding domain
In all, about 33,000 sequences were measured (“E-score (-0.5 to 0.5)”: median about -0.016, highest 2% from about 0.31 on). For the sample, the highest values were picked, then their nearest neighbours and some sequences at random.
This section presents sequences with their documented PBM E-score values.

Sample answers from the record:
INSERT INTO measurements (chain_sequence, observed_value) VALUES
  ('ATTAGGTA', 0.261),
  ('GAATATTA', 0.188);

Q: # get_value(readout='PBM E-score', item= GGGTGTAC )
A: -0.185

Q: # get_value(readout='PBM E-score', item= TCACGTAA )
A: 0.415

Q: # get_value(readout='PBM E-score', item= ATTACGTC )
A: 0.485

Q: # get_value(readout='PBM E-score', item= GGCCGTGA )
A: 0.14

Q: # get_value(readout='PBM E-score', item= CGGTTAAG )
A: -0.0846

Q: # get_value(readout='PBM E-score', item= AGGGGCTG )
A: -0.271

Q: # get_value(readout='PBM E-score', item= AGGTGACA )
A: 0.278

Q: # get_value(readout='PBM E-score', item= ACGGTCTA )
A: -0.0035

Q: # get_value(readout='PBM E-score', item= AGTCCTTA )
A: -0.0772

Q: # get_value(readout='PBM E-score', item= GCGCCGAA )
A: 0.132

Q: # get_value(readout='PBM E-score', item= AGACAAAT )
A: 0.159

Q: # get_value(readout='PBM E-score', item= CAATATTC )
A: -0.0581

Q: # get_value(readout='PBM E-score', item= CATTTGTC )
A: 0.0906

Q: # get_value(readout='PBM E-score', item= AGTGTGCC )
A: -0.088

Q: # get_value(readout='PBM E-score', item= CCACGTAA )
A: 0.275

Q: # get_value(readout='PBM E-score', item= AGGCCGTA )
A: 0.0502

Q: # get_value(readout='PBM E-score', item= CCGCCGTA )
A: 0.0871

Q: # get_value(readout='PBM E-score', item= AGGACTGG )
A: -0.203

Q: # get_value(readout='PBM E-score', item= AGGTGACC )
A: 0.046

Q: # get_value(readout='PBM E-score', item= GCGCCGTA )
A: 0.384

Q: # get_value(readout='PBM E-score', item= ACACGTAC )
A: -0.0236

Q: # get_value(readout='PBM E-score', item= GGTGGCGA )
A: -0.11
